These entries and their values trace back to paper PMC5540273.

System: p38-beta;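 note: KINOMEscan kinase panel screen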
Construct: gene MAPK11
conditionContext: concentration: 1 μM, replicates: in singlicate; n = 1
attributeMeasured: %Inh
Could you give the number and then its unit, please?

{"columns": ["molecule", "%Inh"],
 "data": [
  ["Fc1cc(Cl)ccc1Nc1ccnc2cc(I)ccc12", "0%"],
  ["CCn1c(-c2cccnc2O)nc2cnccc21", "0%"],
  ["O=S(=O)(c1ccc(-c2ccnc3[nH]ccc23)cc1)N1CCCC1", "0%"],
  ["O=C(Nc1n[nH]c2cc(-c3cccc(F)c3F)ccc12)C1CC1", "2%"],
  ["Cc1nnc(-c2ccc3occ(-c4ccc(S(C)=O)cc4)c3c2)[nH]1 (stereo not shown)", "0%"],
  ["COc1cc2ncnc(Nc3ccc4nc(-c5ccccc5)[nH]c4c3)c2cc1OC.Cl", "0%"]
]}

// sample CC(C)(C)c1ccc(C(=O)Nc2cn3cc(Cl)ccc3n2)cc1 , its %Inh was 0%

Reported %Inh ( O=c1cc(N2CCOCC2)nc2n(Cc3cccc(Cl)c3Cl)ccn12 ) = 0%

Input Fc1cccc(COc2nnc(-c3ccc4c(c3)CCO4)o2)c1 . Output %Inh: 0%

%Inh in this record for Cc1cccc(-c2nc(Nc3cccc(C(N)=O)c3)c3ccccc3n2)n1 : 34%
